Target: GTPase KRas (Homo sapiens, UniProt P01116, G12D)
Sequence (P01116 whole entry G12D): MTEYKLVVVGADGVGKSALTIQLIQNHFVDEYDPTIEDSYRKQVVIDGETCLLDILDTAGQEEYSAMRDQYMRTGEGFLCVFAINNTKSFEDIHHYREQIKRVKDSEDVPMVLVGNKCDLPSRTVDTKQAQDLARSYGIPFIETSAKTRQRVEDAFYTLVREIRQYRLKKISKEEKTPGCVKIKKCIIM
Experiment: Inhibition of KRAS G12D mutant in human PANC-1 cells assessed as reduction in phosphorylation of ERK 1/2 level incubated for 3 hrs
readout: IC50
Include the unit after the number when you answer.

Illustrative cases are given below, each with its answer.
- compound: "C#Cc1c(F)ccc2cc(O)cc(-c3ncc4c(N5CC6CCC(C)(C5)N6)cc(OC[C@@]56CCCN5C[C@H](F)C6)nc4c3F)c12 (some centres undefined)"
  IC50: "24 nM"
- compound: "C#Cc1c(F)ccc2cc(O)cc(-c3ncc4c(N5C[C@H]6CC[C@@H](C5)N6)cc(C#C[C@@]56CCCN5C[C@H](F)C6)nc4c3F)c12"
  IC50: "439 nM"
- compound: "CCc1c(F)ccc2cc(O)cc(-c3ncc4c(N5C[C@H]6CC[C@@H](C5)N6)cc(OC[C@@]56CCCN5C[C@H](F)C6)nc4c3F)c12"
  IC50: "46 nM"

For the compound "CCc1c(F)ccc2cc(O)cc(-c3ncc4c(N5C[C@H]6CC[C@@H](C5)N6)cc(C#C[C@@]56CCCN5C[C@H](F)C6)nc4c3F)c12" , give its measured IC50 value.
305 nM

###

Molecular target: GTPase KRas (Homo sapiens, UniProt P01116, G12D)
Assay: Inhibition of KRAS G12D mutant in human PANC-1 cells assessed as reduction in phosphorylation of ERK 1/2 level incubated for 3 hrs
readout: IC50 (nM)
Answer in nM, number only, no unit symbol.

Take a look at these entries with their results.
- smiles-entry: "C#Cc1c(F)ccc2cc(O)cc(-c3ncc4c(N5C[C@H]6CC[C@@H](C5)N6)cc(OC[C@@]56CCCN5C[C@H](F)C6)nc4c3F)c12"
  IC50 [nM]: 7.9
- smiles-entry: "Oc1cc(-c2ncc3c(N4C[C@H]5CC[C@@H](C4)N5)cc(OC[C@@]45CCCN4C[C@H](F)C5)nc3c2F)c2c(F)cccc2c1"
  IC50 [nM]: 40
- smiles-entry: "Oc1cc(N2CCc3c(nc(OCC45CCCN4CCC5)nc3N3C[C@H]4CC[C@@H](C3)N4)C2)c2c(Cl)cccc2c1"
  IC50 [nM]: 15

Kindly consider the entry below.
Look up and report measured IC50 for this entry: "C#Cc1cccc2cc(O)cc(-c3ncc4c(N5C[C@H]6CC[C@@H](C5)N6)cc(OC[C@@]56CCCN5C[C@H](F)C6)nc4c3F)c12"
9.5
